# Subject of test: T1, UNK ZnF1-3 (human, UniProt Q9C0B0 31-174)
# T1 sequence: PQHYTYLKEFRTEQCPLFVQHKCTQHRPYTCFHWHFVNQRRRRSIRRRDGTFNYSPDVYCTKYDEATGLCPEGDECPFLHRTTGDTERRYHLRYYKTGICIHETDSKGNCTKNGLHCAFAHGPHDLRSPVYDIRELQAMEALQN
# Test summary: nsRBNS (natural sequence RNA bind-n-seq); RBNS binding buffer (assumed for nsRBNS): 25 mM Tris pH 7.5, 150 mM KCl, 3 mM MgCl2, 0.01% Triton X-100, 500 ug/ml BSA, 20 U/ml SUPERase-In, 4 C; UNK is unkempt and MSI1 is Musashi-1; names of the RNAs are library labels; protein concentration not given here; high values mean tight binding
Over roughly 24,000 sequences, “enrichment r” has its median near 0.99; the highest 2% begin near 3.7. Only a sample is shown.

Binder: chr2:120799606:120799607:+_ENSG00000115109_ENST00000263713|hu_hu|motif|central (ssRNA) RNA: GGGAGUUCUACAGUCCGACGAUCGUACAUAAUCUGAUCAAACAACUCUUGUCCUUUGGCUUUUUUUGGCAAGUCCACACGGACAUCAGUACCAUCCAGAAGGGACACCCGACACGUGAUGAUGGACUUAGAAUCUCCAGCUGCCAACAGAGGAUUGAGCAUCA
binding signal / enrichment R: 0.976
--
Binder: chr2:160604994:160604995:+_ENSG00000136536_ENST00000409591|hu_mus|motif|central (ssRNA) RNA: GGGAGUUCUACAGUCCGACGAUCUCUUGAAGACUCAUCCCUUCCCUCUCGCCUCCUUCUCGAGAACAAAGGUGUGCAUCGGUUUCGGAGUGAAGAAGACAACCAUGGUCCUGAAUUUCUACCUUCUGAUUCUUGGUUAAAAUUCAACAGAGGAUUGAGCAUCA
binding signal / enrichment R: 0.976
--
Binder: 62954625_62958383_5419_CDS_ENSG00000116641_ENST00000251157|human|control|control (ssRNA) RNA: GGGAGUUCUACAGUCCGACGAUCUGCUUCUUGAAGUUUACCAUGAAUUGUGGAUAGUUUCUUUGCAUCCCGAUUAGCUUCAUGAAUAGGAAUAAGUACUUUGUAAACUUCAUUAACUGCUUCAUACAUGCCAGCCAUAGAGAACAACAGAGGAUUGAGCAUCA
binding signal / enrichment R: 1.01
